- TARGET: A/HongKong/1073/99 (H9N2) inactivated viral preparation (Influenza A virus A/HongKong/1073/99 (H9N2))
- ASSAY_PROTOCOL: ELISA, inactivated virus
READOUT_TYPE: EC50
Number first, unit second: that is the form wanted.

Suppose we examine the binder R1a-C5 (VHH) VHH: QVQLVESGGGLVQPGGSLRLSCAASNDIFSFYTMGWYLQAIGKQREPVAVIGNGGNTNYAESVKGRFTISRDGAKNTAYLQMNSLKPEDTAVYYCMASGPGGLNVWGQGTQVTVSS ; what EC50 value has been reported?
4.48 µg/mL

Suppose we examine the binder R2b-E8 (VHH) VHH: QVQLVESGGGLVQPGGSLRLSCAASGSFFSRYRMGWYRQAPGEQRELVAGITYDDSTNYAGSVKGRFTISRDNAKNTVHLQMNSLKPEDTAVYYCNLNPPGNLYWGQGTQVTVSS ; what EC50 value has been reported?
5.63 µg/mL

Suppose we examine the binder R1a-H6 (VHH) VHH: QVQLVESGGGLVQAGDSLRLSCTASVLTFSLYRVGWFRQAPGKEREFVAAIDWGDGPTTYADSVKGRFTISRDNAERTAYLQINSLKPEDTAVYYCGAGNTGSSDRSSSYVHWGQGTQVTVSS ; what EC50 value has been reported?
5.7 µg/mL

Suppose we examine the binder R1a-B6 (VHH) VHH: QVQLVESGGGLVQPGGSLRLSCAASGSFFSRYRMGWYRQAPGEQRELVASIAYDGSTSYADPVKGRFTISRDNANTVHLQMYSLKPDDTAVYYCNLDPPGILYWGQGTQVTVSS ; what EC50 value has been reported?
2.3 µg/mL

The origin of these recorded values is patent US20140302063A1.
